Reported logP values follow for various molecules
experiment: physchem; settings: octanol/water
Format: numeric value only, no unit, no commentary.

C1C2CC3CC1CC(C2)C3
3.98
CCCCCl [BUTYL CHLORIDE]
2.52
Clc1ccc(-c2ccccc2Cl)cc1
5.46

logP in this record for `Clc1ccc(Cl)c(-c2ccccc2)c1` : 5.46

Reported logP of `Cc1ccc2c3ccccc3c3cccc4ccc1c2c43` : 6.77

So for `Clc1c(Cl)c(Cl)c(Cl)c(Cl)c1Cl` , the logged logP turned out to be 6.42

So for `Cc1ccc(Cl)cc1` , the logged logP turned out to be 3.5

Query `CC(=O)Oc1cc(C)c(OC(C)=O)c2ccccc12` yields logP of 3.59

Reported logP ( `CC(C)c1ccccc1` ) = 3.72

response.value for `Clc1cccc(Cl)c1` (field: logP) = 3.57

# logP (molecule: `ClCCCl` ) is 1.46

// `Cc1c(C)c(C)c(C)c(C)c1C` : logP value = 6.04

Record `Cc1cccc2ccccc12` . Reported logP: 3.96

The value of logP measured for the molecule `Nc1nc2ncc(CNc3ccc(C(=O)N[C@@H](CCC(=O)O)C(=O)O)cc3)nc2c(=O)[nH]1` turned out to be -2.81

Form field logP, entry `Cc1c2ccccc2c(C)c2ccccc12` : 5.79
